Values compiled from PubChem BioAssay (NCI).

Quick reference: growth of the listed items.
Test system: NCI-H322M lung
Assay: NCI-60 one-dose screen, 48 h (100 = growth as untreated, 0 = no growth, -100 = all killed)
Details: 10 µM unless noted
About 83,000 compounds went through this panel and 20% of them were active in at least one assay; those are over-represented in the sample as a whole.
quantityName: growth (%)

compound | valueReported
Cc1c(C(=O)NNC(=O)Nc2ccc(Cl)cc2)nnn1-c1ccc(Br)cc1 | 90.3
CCOC(=O)c1ccc(Nc2nc(NN)nc(-c3ccc(OC)cc3)c2C#N)cc1 | 123
O=C(Cn1c2c(sc1=O)[C@H]1[C@@H](O)[C@@H](O)[C@H](O)[C@@H]1CS2)N1CCOCC1 | 107
O=C(N/N=C/c1ccc(-c2ccc(O)cc2)s1)c1[nH]c2ccc(Br)cc2c1-c1ccccc1 | 29.8
N/C(=N\N=C\c1ccc([N+](=O)[O-])cc1)c1c(N)nc(=S)[nH]c1-c1ccc(Cl)cc1Cl | 100
C=C1CCC2C3(C)COC(c4ccccc4)OC3CCC2(C)C1CC(Sc1ccccc1)C1=CCOC1=O (stereo unspecified) | 80.5
COc1ccc(N2N=C(c3ccc4c(c3)OCO4)CC2c2cccc(NC(=O)CCNS(=O)(=O)c3ccc(Cl)cc3)c2)cc1 (stereo unspecified) | 51.8
CC(=O)/C=C/c1cccc2c1C(=O)NC(C)(c1cc3cc(Br)ccc3oc1=O)N2 (stereo unspecified) | 52.5
C#CCOc1cc(N(CC)CC)ccc1C(C(=O)NC(C)(C)C)N(C(=O)C1CCc2cc(F)ccc2O1)c1cc(C)cc(C)c1 (stereo unspecified) | 66.6
COc1ccc2[nH]cc(-c3cc(N)n4nc(-c5cn(C)c6ccccc56)cc4n3)c2c1 | -97.2
CC(C)CSc1nc(NCCc2c[nH]c3ccccc23)c(C#N)c(-c2ccc(Cl)cc2)n1 | 86.5
COc1ccc(CCC2c3c(cc4c(c3OC)OCO4)CCN2C)cc1 (stereo unspecified) | 0.952
COc1cc2oc(-c3cccc(C(=O)Nc4ccc(Cl)cc4)c3)cc(=O)c2c(OCCNC(=O)[C@@H](N)CCC(=O)O)c1OC | 79.8
Cc1ccc(-c2nc(Nc3ccccc3S(N)(=O)=O)c3ccccc3n2)cc1 | 80.2
N#Cc1ccc(/C=N/NC(=O)c2[nH]c3ccc(Br)cc3c2-c2ccccc2)o1 | 41.3
COc1ccc(C2CC(c3ccc(S(=O)(=O)NCCNc4nc(Nc5ccc(F)cc5)nc(N(C)C)n4)cc3)=Nc3c(N)nc(N)nc3N2)cc1 (stereo unspecified) | 96.6
O=C(Cn1c(/C=C/c2ccccc2)nc2ccccc2c1=O)Nc1ccccc1 | 87.5
COc1ccc(C(=O)/C=C/c2ccc3ccccc3c2)cc1S(N)(=O)=O | 11.3
COc1ccc2[nH]c(O)c(N=NC(=O)Cn3c(-c4ccccc4)nc4cc(C)ccc43)c2c1 | 49.5
C=CC[N+](C)(C)CCn1c2ccccc2c2nc3cc(C)c(C)cc3nc21 | 102
N#Cc1cnn(C(=O)c2ccccc2Br)c1NC(=O)c1ccc(Br)cc1Cl | 100
CC(C)Sc1nc(NCCc2c[nH]c3ccccc23)c(C#N)c(-c2ccccc2)n1 | 85.4
N/C(=N\c1nc2ccccc2s1)NC(=O)Nc1ccccc1Br | 14.6
Brc1ccc(-c2n(Cc3ccc4ccccc4c3)c(-c3ccccc3)c(-c3ccccc3)[n+]2Cc2ccc3ccccc3c2)cc1 | -99.1
CCCCSc1nc(NCCc2c[nH]c3ccccc23)c(C#N)c(-c2ccc(OC)cc2)n1 | 87.4
O=C(NNc1nc2cc(C(F)(F)F)ccc2n2cccc12)c1cnccn1 | -13.6
NS(=O)(=O)c1ccc(-n2cc(-c3cccc(NC(=O)c4cc(C(F)(F)F)cc(C(F)(F)F)c4)c3)nn2)cc1 | 65.8
O=C(COc1ccc(NC(=O)Nc2ccccc2)cc1)N=Nc1c(O)[nH]c2ccc([N+](=O)[O-])cc12 | 37.7
CN(C)c1nc(NCCNS(=O)(=O)c2ccc(C3=Nc4c(N)nc(N)nc4NC(c4ccccc4)C3)cc2)nc(Nc2ccc(F)cc2)n1 (stereo unspecified) | 58.4
CN1CCN(c2ccc3c(c2)nc(NNC(=O)c2ncccn2)c2cccn23)CC1 | -7.59
COc1ccc(/C=C/c2nc3ccccc3nc2Nc2cccc(C)c2)cc1 | 105
N#Cc1c(-c2cccc(Cl)c2Cl)cc(-c2c[nH]c3ccccc23)[nH]c1=O | 76.5
C=C1CC[C@@H]2[C@]3(C)COC(c4cn[nH]c4-c4ccccc4)O[C@@H]3CC[C@@]2(C)[C@@H]1C/C=C1/C(=O)OCC1O (stereo partly specified) | 83.7
COc1ccc(N2N=C(c3ccc4c(c3)OCO4)CC2c2cccc(NC(=O)CCCNS(=O)(=O)c3ccc(F)cc3)c2)cc1 (stereo unspecified) | 76.1
O=C(Cn1c(/C=C/c2cccc([N+](=O)[O-])c2)nc2ccccc2c1=O)Nc1ccccc1 | 83.9
CCCCCCCS(=O)(=O)N1CCCC(C(=O)Nc2nc3ccc(NC(=O)c4ccc(F)c(OC)c4F)cc3s2)C1 (stereo unspecified) | 77.7
